# System: SW1990 pancreatic adenocarcinoma cells [homozygous G12D]
# protocol: Cancer cell line proliferation (CellTiter-Glo), SW1990
# Type: cell-based
# assayConditions: Homo sapiens, 72 hr treatment, read-out: SW1990 CTG (EC50)
Record form. Attribute: EC50. Fill in for each entry.

Data request, read-out EC50, for CC(C)c1cc(C(=O)N2Cc3ccc(CN4CCC(CN5CCN(CC6(COc7nc(N8CC9CCC(C8)N9)c8cnc(-c9cccc%10ccccc9%10)c(F)c8n7)CC6)CC5)CC4)cc3C2)c(O)cc1O 0.1 to 1 µM

Data request, read-out EC50, for C#Cc1c(F)ccc2cc(O)cc(-c3nc(OC)c4c(N5CC6CCC(C5)N6)nc(OCC5(CN6CCN(CC7CCN(Cc8ccc(-n9c(C(=O)NCC(F)(F)F)nnc9-c9cc(C(C)C)c(O)cc9O)cc8)CC7)CC6)CC5)nc4c3F)c12 < 0.1 µM

Data request, read-out EC50, for C#Cc1c(F)ccc2cc(O)cc(-c3nc(OC)c4c(N5CC6CCC(C5)N6)nc(OCC5(CN6CCN(CC7CCN(Cc8ccc(-n9c(C(=O)NCC)nnc9-c9cc(C(C)C)c(O)cc9O)cc8)CC7)CC6)CC5)nc4c3F)c12 < 0.1 µM

Data request, read-out EC50, for C#Cc1c(F)ccc2cc(O)cc(-c3ncc4c(N5CC6CCC(C5)N6)nc(OCC5(CN6CCC(N7CCN(Cc8ccc(-n9c(C(=O)NC(C)C(F)(F)F)nnc9-c9cc(C(C)C)c(O)cc9O)cc8)CC7)CC6)CC5)nc4c3F)c12 (stereo not shown) < 0.1 µM
